Tested on: Chenopodium album
Assay: Test Example 3: herbicidal effect test by treatment of dry field farming soil (one day after seeding)
Format: in vivo
Conditions: 120 g/10a active ingredient, evaluated 14 days after treatment
Procedure: This test was conducted in a double system per one agent solution concentration area, and the herbicidal rates (%) were determined by the following equation (Math. 1) on 14 days after the treatment with the agents. […] Pots with a size of 36 cm^2 were filled with a dry field farming soil (alluvium). […] The herbicidal effects were evaluated by the same standard as that in Test Example 1 on 14 days after the treatment with the agents. […]
In this section, each of the molecules is paired with its reported herbicidal rate, Chenopodium album.
Field: numeric (%). Do not append units.

Check out these entries, answers already filled in.
MOLECULE	ASSAYED SYSTEM	herbicidal rate, Chenopodium album / %
Cc1c(Cc2ccccc2N(C(=O)C2CC2)S(=O)(=O)C(F)(F)F)c(=O)on1C(C)c1ccccc1 (stereo not shown) [Compound 1-416]	Chenopodium album	90
CCCC(c1ccccc1)n1oc(=O)c(Cc2ccccc2N(S(=O)(=O)C(F)(F)F)S(=O)(=O)C(F)(F)F)c1C (stereo not shown) [Compound 1-1039]	Chenopodium album	0
CCC(C)Cn1oc(=O)c(Cc2ccccc2N(C(C)=O)S(=O)(=O)C(F)(F)F)c1C (stereo not shown) [Compound 1-300]	Chenopodium album	60

For record COCC(C)n1oc(=O)c(Cc2ccccc2N(C(=O)OCc2ccccc2)S(=O)(=O)C(F)(F)F)c1C (stereo not shown) [Compound 1-790] the listed herbicidal rate, Chenopodium album is 90

Where do these numbers come from? They come from patent US11109593B2.
